For each of the molecules below, state its collision cross section in nitrogen.
Assay: collision cross section in nitrogen (drift tube, single-field); higher = larger gas-phase ion size;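 note: chemical standards at 10 µM analysed by drift tube IMS-QTOF MS in about 3.95 torr nitrogen, mean of duplicate injections differing ≤1%, mass error below 10 ppm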
Conditions: ion type: [M+H]; ion source: APCI; ion mode: Positive
Write the number in Å² without appending the unit.

Looking for the measured collision cross section in nitrogen of CC=CC(=O)N(CC)c1ccccc1C , can you help?
145.3

Looking for the measured collision cross section in nitrogen of NCCCN1CCOCC1 , can you help?
128.3

Looking for the measured collision cross section in nitrogen of O=C1OC(c2ccc(O)cc2)(c2ccc(O)cc2)c2ccccc21 , can you help?
173.8

Looking for the measured collision cross section in nitrogen of COc1ccc(N)cc1 , can you help?
120.3

Looking for the measured collision cross section in nitrogen of c1ccc(CCCc2ccccn2)cc1 , can you help?
140.8

====

Assay: collision cross section in nitrogen (drift tube, single-field); higher = larger gas-phase ion size
Conditions: ion type: [M-H]; ion source: ESI; ion mode: Negative
valueKind: collision cross section in nitrogen (Å²)
Write the number in Å² without appending the unit.

Looking for the measured collision cross section in nitrogen of CN(C)C(=O)Nc1cccc(C(F)(F)F)c1 , can you help?
146.2

Looking for the measured collision cross section in nitrogen of CCCc1c(OCCCOc2ccc(OCC(=O)O)cc2)ccc(C(C)=O)c1O , can you help?
190.5

Looking for the measured collision cross section in nitrogen of COc1ccc(C(=O)c2ccccc2)c(O)c1 [2-Hydroxy-4-methoxybenzophenone] , can you help?
152.9

Looking for the measured collision cross section in nitrogen of CC(C)COC(=O)CC(C(=O)OCC(C)C)S(=O)(=O)O (stereo not given) [Sodium 1,4-diisobutyl sulfosuccinate] , can you help?
174.4

Looking for the measured collision cross section in nitrogen of Cc1c[nH]c(=O)[nH]c1=O , can you help?
121

Looking for the measured collision cross section in nitrogen of CCC(C)n1c(=O)[nH]c(C)c(Br)c1=O (stereo not given) , can you help?
146.6

Looking for the measured collision cross section in nitrogen of Cc1cc(Cl)ccc1OCC(=O)O , can you help?
146.1

Looking for the measured collision cross section in nitrogen of CC(C)OC(=O)Nc1cccc(Cl)c1 , can you help?
148.4

Looking for the measured collision cross section in nitrogen of CC12CC1(C)C(=O)N(c1cc(Cl)cc(Cl)c1)C2=O (stereo not given) , can you help?
157.1

Looking for the measured collision cross section in nitrogen of CC(C)c1ccc(NC(=O)N(C)C)cc1 , can you help?
155.4

====

Assay: collision cross section in nitrogen (drift tube, single-field); higher = larger gas-phase ion size
Conditions: ion type: [M+H]; ion source: ESI; ion mode: Positive
Structures can show the parent of a compound that is named as a salt.
valueKind: collision cross section in nitrogen (Å²)
Write the number in Å² without appending the unit.

Looking for the measured collision cross section in nitrogen of C[C@H]1C[C@H]2[C@@H]3CCC4=CC(=O)C=C[C@]4(C)[C@@]3(F)[C@@H](O)C[C@]2(C)[C@@]1(O)C(=O)CO [Betamethasone] , can you help?
177.2

Looking for the measured collision cross section in nitrogen of CCOc1ccc(N)cc1 [4-Ethoxyaniline] , can you help?
139.8

Looking for the measured collision cross section in nitrogen of O=P1(N(CCCl)CCCl)NCCCO1 (centres undefined) [Cyclophosphamide monohydrate] , can you help?
147.6

Looking for the measured collision cross section in nitrogen of CCCCNC1CC(C)(C)NC(C)(C)C1 [N-Butyl-2,2,6,6-tetramethylpiperidin-4-amine] , can you help?
154

Looking for the measured collision cross section in nitrogen of O=c1c(O)c(-c2ccc(O)cc2)oc2cc(O)cc(O)c12 [Kaempferol] , can you help?
162.8

Looking for the measured collision cross section in nitrogen of CCCCN(CCCC)SN(C)C(=O)Oc1cccc2c1OC(C)(C)C2 [Carbosulfan] , can you help?
188.3

Looking for the measured collision cross section in nitrogen of CCCCCCOc1ccc(N)cc1 [4-Hexyloxyaniline] , can you help?
167.4

Looking for the measured collision cross section in nitrogen of CCCCN1C(=O)[C@@H]([C@H](O)C2CCCCC2)NC(=O)C12CCN(Cc1ccc(Oc3ccc(C(=O)O)cc3)cc1)CC2 [Aplaviroc hydrochloride] , can you help?
260.4

Looking for the measured collision cross section in nitrogen of Nc1cccc(N)n1 [2,6-Diaminopyridine] , can you help?
119.8
